Collected IC50 values appear next to each entry.
test system: Human STING (residues 140-379, H232R) (Homo sapiens (Human), UniProt Q86WV6, H232R)
Sequence (Q86WV6 140-379 H232R): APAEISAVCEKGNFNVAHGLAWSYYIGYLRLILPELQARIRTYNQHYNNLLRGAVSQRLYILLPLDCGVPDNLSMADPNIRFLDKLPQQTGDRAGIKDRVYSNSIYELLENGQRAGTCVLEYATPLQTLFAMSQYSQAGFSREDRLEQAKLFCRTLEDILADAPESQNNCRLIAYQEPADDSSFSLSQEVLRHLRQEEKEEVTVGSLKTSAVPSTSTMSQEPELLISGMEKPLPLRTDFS
test protocol: Human STING TR-FRET Assay
condition context: read-out: Enz-TR-Fret IC50, fluorescein labeled ligand 100 nM, STING protein 100 nM, 60 minutes at rt

# count of solved cases: 2
Nc1nc2c(ncn2[C@@H]2O[C@@H]3COP(=O)(S)O[C@H]4C[C@H](Nc5ncncc5F)C[C@@H]4COP(=O)(S)O[C@@H]2[C@@H]3O)c(=O)[nH]1 (stereo partly drawn) [Compound I-34a] ... < 1 µM
Nc1nc2c(ncn2[C@@H]2O[C@@H]3COP(=O)(S)O[C@H]4C[C@H](Nc5ncncc5F)C[C@@H]4COP(=O)(S)O[C@@H]2[C@@H]3O)c(=O)[nH]1 (stereo partly drawn) [Compound I-34b] ... < 1 µM

May I ask what IC50 has been recorded for Nc1nc2c(ncn2[C@@H]2O[C@@H]3COP(=O)(S)O[C@@H]4[C@@H](COP(=O)(S)O[C@@H]2[C@@H]3O)C[C@@H](Oc2ccncn2)[C@@H]4F)c(=O)[nH]1 (single isomer, unassigned) [Compound I-39b] ? < 1 µM
